- assayed.target: Leucine aminopeptidase (Plasmodium falciparum (isolate 3D7)) (UniProt Q8IL11)
- Sequence (Q8IL11 whole entry, looked up): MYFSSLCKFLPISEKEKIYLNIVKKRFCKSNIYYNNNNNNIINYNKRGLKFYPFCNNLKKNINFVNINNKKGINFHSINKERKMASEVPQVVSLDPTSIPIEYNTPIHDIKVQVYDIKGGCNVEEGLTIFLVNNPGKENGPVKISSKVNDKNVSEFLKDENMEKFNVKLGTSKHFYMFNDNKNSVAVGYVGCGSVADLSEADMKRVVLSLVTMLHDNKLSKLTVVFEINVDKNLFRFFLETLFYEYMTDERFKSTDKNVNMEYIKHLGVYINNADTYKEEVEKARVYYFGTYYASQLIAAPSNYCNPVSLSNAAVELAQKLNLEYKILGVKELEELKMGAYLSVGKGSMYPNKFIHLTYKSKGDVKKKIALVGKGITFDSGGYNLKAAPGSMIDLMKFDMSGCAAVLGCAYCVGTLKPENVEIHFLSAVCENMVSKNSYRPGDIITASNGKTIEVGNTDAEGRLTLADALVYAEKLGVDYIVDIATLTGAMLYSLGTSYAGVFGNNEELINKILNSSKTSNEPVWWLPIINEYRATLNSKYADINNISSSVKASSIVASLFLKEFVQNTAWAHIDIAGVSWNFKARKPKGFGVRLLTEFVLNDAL
- experiment.notes: P. falciparum M17LAP inhibitors, primary screen, biochemical, fluorogenic H-Leu-NHMec substrate, 1536-well (AID 1619);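 further: plate controls were full reaction with DMSO carrier for no effect and no enzyme background for full effect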
- study.conditions: recombinant M17LAP, H-Leu-NHMec fluorogenic kinetic assay; at 30 µM; hits give high values
In all, about 220,000 compounds went through this assay and about 830 (0.38%) were called active. These entries were drawn from the full list. Potency and affinity values are given separately.
The entries below come with measured inhibition values attached.
Give your result in % as a bare value.

# example entries with known answers
- compound: "COC(=O)c1cccc(CN2C(=O)SC(Nc3ccc(C)cc3)C2=O)c1 (centres undefined)"
  unit.label: "%"
  inhibition: 2.69
- compound: "O=C(c1ccc(S(=O)(=O)N2CCCCC2)cc1)N(c1ccccn1)C1CCCCC1"
  unit.label: "%"
  inhibition: 0.89
- compound: "O=C(Nc1cccc(Cl)c1)Nc1cccc(C(=O)O)c1"
  unit.label: "%"
  inhibition: -7.66
- compound: "COc1ccc(Oc2ccc(/C=C/C(=O)c3ccc(O)cc3)cc2[N+](=O)[O-])cc1"
  unit.label: "%"
  inhibition: 12.4
- compound: "CCOC(=O)c1cc(NC(=O)C2C3CCC(O3)C2C(=O)O)cc(C(=O)OCC)c1 (centres undefined)"
  unit.label: "%"
  inhibition: -8.46
- compound: "O=C1/C(=C/c2ccncc2)CCC/C1=C\\c1ccncc1"
  unit.label: "%"
  inhibition: -3.28
- compound: "COc1ccc(C(=O)NCCCCCC(=O)N/N=C/c2ccco2)cc1OC"
  unit.label: "%"
  inhibition: -1.79
- compound: "CSc1nc(=O)n(-c2ccccc2)c(C)c1C(C)=O"
  unit.label: "%"
  inhibition: 2.84

In: I am curious: what inhibition value has been reported for CC(=O)Nc1ccc(CC(=O)O)cc1 ?
Out: -5.89

In: I am curious: what inhibition value has been reported for Cc1nn(S(=O)(=O)c2cccc([N+](=O)[O-])c2)c(C)c1Br ?
Out: 10.8

In: I am curious: what inhibition value has been reported for COCCNC(=O)/C(C#N)=C/c1ccc(C)o1 ?
Out: 23.4
